Would you kindly list melting point for each of these compounds?

COMPOUND	OBSERVED PROPERTY	REPORTED RESULT
C[C@@H]1OCCN(c2cc(N3CCOCC3)nc(-n3c(C(F)F)nc4ccccc43)n2)[C@@H]1C (relative stereo)	melting point	167 to 169 °C
C[C@@H]1OCCN(c2cc(N3CCCCC3)nc(-n3c(CO)nc4ccccc43)n2)[C@@H]1C (relative stereo)	melting point	141 to 143 °C
CC1(C)CN(c2nc(N3CCOCC3)nc(-n3c(C(F)F)nc4ccccc43)n2)CCO1	melting point	176 to 178 °C
FC(F)c1nc2ccccc2n1-c1nc(N2CCOCC2)cc(N2CCSCC2)n1	melting point	173 to 175 °C
Nc1cccc2c1nc(C(F)F)n2-c1nc(N2CCOCC2)nc(N2CCOCC2)n1	melting point	214 to 216 °C (dec.)
CC(=O)Nc1nc2ccccc2n1-c1nc(N2CCOCC2)cc(N2CCO[C@@H](C)[C@@H]2C)n1 (relative stereo)	melting point	150 to 153 °C

Below are 5 compounds. Give each one its melting point.
1. C[C@H]1COC(C)(C)CN1c1cc(N2CCOCC2)nc(-n2c(C(F)F)nc3ccccc32)n1
2. FC(F)c1nc2ccccc2n1-c1nc(N2CCOCC2)cc(N2CCOCC2)n1
3. CC1(C)CN(c2cc(N3CCOCC3)nc(-n3c(C(F)F)nc4ccccc43)n2)CCO1
4. CC1(C)OCCN1c1nc(N2CCOCC2)nc(-n2c(C(F)F)nc3cc(O)ccc32)n1
5. CC1CN(c2nc(N3CCOCC3)nc(-n3c(C(F)F)nc4ccccc43)n2)CCO1 (centres unmarked)

1: 113 to 116 °C; 2: 201 to 202 °C; 3: 149 to 152 °C; 4: 239 to 243 °C (dec.); 5: 188 to 191 °C

====

system: MCF-7 cells; assay: Test 1: growth inhibition of MCF-7 human breast cancer cells; format: cell-based; conditions: Homo sapiens, MCF7, 72 hours culture with sample, read-out: GI50 (50% growth inhibition concentration)
Sorting guide: entries reporting GI50 beneath 200 nM go in the Fulfilled pile, the rest go in the Not fulfilled pile.

Here are 5 compounds together with their reported answers.
COMPOUND	CLASS
C[C@@H]1OCCN(c2cc(N3CCCC3CO)nc(-n3c(CO)nc4ccccc43)n2)[C@@H]1C (relative stereo)	Not fulfilled
C[C@@H]1OCCN(c2nc(N3CCOCC3)nc(-n3c(C(F)F)nc4ccc(N)cc43)n2)[C@@H]1C (relative stereo)	Fulfilled
CC1(C)CN(c2nc(N3CCOCC3)nc(-n3c(C(F)F)nc4ccc(N)cc43)n2)CCO1	Fulfilled
CC1CN(c2cc(N3CCOCC3)nc(-n3c(C(F)F)nc4ccccc43)n2)CCO1 (centres unmarked)	Not fulfilled
C[C@@H]1OCCN(c2nc(N3CCOCC3)nc(-n3c(C(F)F)nc4cc(O)ccc43)n2)[C@@H]1C (relative stereo)	Fulfilled

Quick check: GI50 of CN(C)c1nc(N(C)C)nc(N(C)C)n1 [compound D, hexamethylmelamine, reference compound] under 200 nM?
Not fulfilled

Quick check: GI50 of CC(=O)Nc1nc2ccccc2n1-c1nc(N2CCOCC2)cc(N2CCO[C@@H](C)[C@@H]2C)n1 (relative stereo) under 200 nM?
Fulfilled
